Items are presented alongside their recorded IC50.
- testedOn: Human immunodeficiency virus type 1 reverse transcriptase (Human immunodeficiency virus 1, UniProt Q72547, Y181C)
- assayName: Compound was tested for inhibitory activity against HIV-1 mutant type reverse transcriptase (Y181C)
Numeric answer plus unit only.

cpdSmiles | recordedResult
C1=Cc2cccnc2N(C2CC2)c2ncccc21 | 960 nM

Could you now consider this next molecule?
What does the data say about its IC50? Entry: CCN1c2ncccc2C=Cc2cccnc21
2500 nM

----------
- testedOn: Human immunodeficiency virus type 1 reverse transcriptase (Human immunodeficiency virus 1)
- assayName: Compound was tested for inhibitory activity against HIV-1 mutant type reverse transcriptase ([…])
readoutType: pIC50
Scale: negative log10 of molar concentration, which is what pIC50 denotes.

cpdSmiles | readoutType | recordedResult
C1=Cc2cccnc2N(C2CC2)c2ncccc21 | pIC50 | 6.82

Turning now to a further molecule:
GET /values?readout=pIC50&item= CCN1c2ncccc2C=Cc2cccnc21
6.64
